# assay-method-text: pH-solubility of linsitinib free base and selected salts (pH 1.5 to 6.5, overnight equilibration, HPLC)
# Assay type: physicochemical
# condition-summary: target pH 2.0; after overnight equilibration
measured-parameter: Final pH

1. CCS(=O)(=O)O.C[C@]1(O)C[C@@H](c2nc(-c3ccc4ccc(-c5ccccc5)nc4c3)c3c(N)nccn32)C1 [Esylate 2]: 2.06
2. CCS(=O)(=O)O.C[C@]1(O)C[C@@H](c2nc(-c3ccc4ccc(-c5ccccc5)nc4c3)c3c(N)nccn32)C1 [Esylate 1]: 1.99
3. C[C@]1(O)C[C@@H](c2nc(-c3ccc4ccc(-c5ccccc5)nc4c3)c3c(N)nccn32)C1.O=C(O)C[C@H](O)C(=O)O [L-Malate 1]: 2.02
4. C[C@]1(O)C[C@@H](c2nc(-c3ccc4ccc(-c5ccccc5)nc4c3)c3c(N)nccn32)C1 [Linsitinib free base, reference compound]: 2.04
5. C[C@]1(O)C[C@@H](c2nc(-c3ccc4ccc(-c5ccccc5)nc4c3)c3c(N)nccn32)C1.O=P(O)(O)O [Phosphate 1]: 1.72

###

# assay-method-text: pH-solubility of linsitinib free base and selected salts (pH 1.5 to 6.5, overnight equilibration, HPLC)
# Assay type: physicochemical
# condition-summary: target pH 5.5; after overnight equilibration
measured-parameter: Final pH

1) CCS(=O)(=O)O.C[C@]1(O)C[C@@H](c2nc(-c3ccc4ccc(-c5ccccc5)nc4c3)c3c(N)nccn32)C1 [Esylate 1]: 4.47
2) C[C@]1(O)C[C@@H](c2nc(-c3ccc4ccc(-c5ccccc5)nc4c3)c3c(N)nccn32)C1.O=C(O)C[C@H](O)C(=O)O [L-Malate 1]: 5.32
3) C[C@]1(O)C[C@@H](c2nc(-c3ccc4ccc(-c5ccccc5)nc4c3)c3c(N)nccn32)C1.O=P(O)(O)O [Phosphate 1]: 5.73
4) C[C@]1(O)C[C@@H](c2nc(-c3ccc4ccc(-c5ccccc5)nc4c3)c3c(N)nccn32)C1 [Linsitinib free base, reference compound]: 6.43
5) CCS(=O)(=O)O.C[C@]1(O)C[C@@H](c2nc(-c3ccc4ccc(-c5ccccc5)nc4c3)c3c(N)nccn32)C1 [Esylate 2]: 5.48

###

# assay-method-text: pH-solubility of linsitinib free base and selected salts (pH 1.5 to 6.5, overnight equilibration, HPLC)
# Format: physicochemical
# condition-summary: target pH 4.5; after overnight equilibration
measured-parameter: Final pH

1) C[C@]1(O)C[C@@H](c2nc(-c3ccc4ccc(-c5ccccc5)nc4c3)c3c(N)nccn32)C1.O=P(O)(O)O [Phosphate 1]: 4.01
2) CCS(=O)(=O)O.C[C@]1(O)C[C@@H](c2nc(-c3ccc4ccc(-c5ccccc5)nc4c3)c3c(N)nccn32)C1 [Esylate 2]: 4.54
3) C[C@]1(O)C[C@@H](c2nc(-c3ccc4ccc(-c5ccccc5)nc4c3)c3c(N)nccn32)C1 [Linsitinib free base, reference compound]: 5.54
4) C[C@]1(O)C[C@@H](c2nc(-c3ccc4ccc(-c5ccccc5)nc4c3)c3c(N)nccn32)C1.O=C(O)C[C@H](O)C(=O)O [L-Malate 1]: 5.05
5) CCS(=O)(=O)O.C[C@]1(O)C[C@@H](c2nc(-c3ccc4ccc(-c5ccccc5)nc4c3)c3c(N)nccn32)C1 [Esylate 1]: 4.36

###

# assay-method-text: pH-solubility of linsitinib free base and selected salts (pH 1.5 to 6.5, overnight equilibration, HPLC)
# Format: physicochemical
# condition-summary: aqueous solution, pH 4.5, aqueous buffer, thermodynamic from solid, target pH 4.5; overnight equilibration; * = clear solution, not equilibrium value; read-out: Solubility
measured-parameter: solubility (µg/mL)

(I) CCS(=O)(=O)O.C[C@]1(O)C[C@@H](c2nc(-c3ccc4ccc(-c5ccccc5)nc4c3)c3c(N)nccn32)C1 [Esylate 1]
(II) C[C@]1(O)C[C@@H](c2nc(-c3ccc4ccc(-c5ccccc5)nc4c3)c3c(N)nccn32)C1.O=P(O)(O)O [Phosphate 1]
(III) C[C@]1(O)C[C@@H](c2nc(-c3ccc4ccc(-c5ccccc5)nc4c3)c3c(N)nccn32)C1.O=C(O)C[C@H](O)C(=O)O [L-Malate 1]
(IV) C[C@]1(O)C[C@@H](c2nc(-c3ccc4ccc(-c5ccccc5)nc4c3)c3c(N)nccn32)C1 [Linsitinib free base, reference compound]
Challenge: Lab note: arrange the 4 compounds above from lowest to highest solubility. Response format: the labels, sorted as the prompt asks.
Response given: IV, III, II, I

###

# assay-method-text: pH-solubility of linsitinib free base and selected salts (pH 1.5 to 6.5, overnight equilibration, HPLC)
# Format: physicochemical
# condition-summary: aqueous solution, pH 5, aqueous buffer, thermodynamic from solid, target pH 5.0; overnight equilibration; read-out: Solubility
measured-parameter: solubility (µg/mL)

(1) CCS(=O)(=O)O.C[C@]1(O)C[C@@H](c2nc(-c3ccc4ccc(-c5ccccc5)nc4c3)c3c(N)nccn32)C1 [Esylate 1]
(2) C[C@]1(O)C[C@@H](c2nc(-c3ccc4ccc(-c5ccccc5)nc4c3)c3c(N)nccn32)C1.O=P(O)(O)O [Phosphate 1]
(3) C[C@]1(O)C[C@@H](c2nc(-c3ccc4ccc(-c5ccccc5)nc4c3)c3c(N)nccn32)C1 [Linsitinib free base, reference compound]
(4) C[C@]1(O)C[C@@H](c2nc(-c3ccc4ccc(-c5ccccc5)nc4c3)c3c(N)nccn32)C1.O=C(O)C[C@H](O)C(=O)O [L-Malate 1]
Challenge: Please put the 4 compounds above in a list ordered by falling solubility. Response format: the labels, sorted as the prompt asks.
Response given: 1, 4, 2, 3

// data source = patent US11976074B1
